Where do these numbers come from? They come from patent US10533010B2.

Biological target: recombinant Mcl-1 (residues 172-327) (Homo sapiens (Human), UniProt Q07820)
Sequence (Q07820 172-327): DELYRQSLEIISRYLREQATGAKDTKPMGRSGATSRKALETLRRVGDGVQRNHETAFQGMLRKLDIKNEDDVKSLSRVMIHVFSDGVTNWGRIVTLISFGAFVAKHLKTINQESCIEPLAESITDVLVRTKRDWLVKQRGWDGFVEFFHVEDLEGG
Assay: Fluorescence polarization anisotropy competition assay (FITC-Bak or FITC-Bim BH3 peptide) with Mcl-1
Format: binding
Details: Table 2; Ki bins given in nM; FITC-Bak or FITC-Bim peptide competition; Ki converted from IC50; read-out: Ki for Inhibition of Mcl-1
PROPERTY LABEL: Ki

If you can, please state the reported Ki value of Cc1cc(OCCCc2c3n(c4c(-c5c(C)nn(C)c5C)c(Cl)ccc24)CCCNC3=O)cc(C)c1Cl .
< 50 nM

Same read-out for Cc1cc(OCCCc2c(C(=O)NCc3cccc(C(=O)O)c3)n(CCN3CCOCC3)c3c(-c4c(C)nn(C)c4C)c(Cl)ccc23)cc(C)c1Cl ?
< 50 nM

Here is the next compound: Cc1cc(OCCCc2c3n(c4c(-c5c(C)nn(C)c5C)c(Cl)ccc24)C(C)CCNC3=O)cc(C)c1Cl (stereo not drawn)
< 50 nM
